B1: library; numbered along this chain (parent)
chain: MEVVDPQQLGMFTEGELMSVGMDTFIHRIDSTEVIYQPRRKRAKLIGKYLMGDLLGEGSYGKVKEVLDSETLCRRAVKILKKKKLRRIPNGEANVKKEIQLLRRLRHKNVIQLVDVLYNEEKQKMYMVMEYCVCGMQEMLDSVPEKRFPVCQAHGYFCQLIDGLEYLHSQGIVHKDIKPGNLLLTTGGTLKISDLGVAEALHPFAADDTCRTSQGSPAFQPPEIANGLDTFSGFKVDIWSAGVTLYNITTGLYPFEGDNIYKLFENIGKGSYAIPGDCGPPLSDLLKGMLEYEPAKRFSIRQIRQHSWFRKKHPPAEAPVPIPPSPDTKDRWRSMTVVPYLEDLHGADEDEDLFDIEDDIIYTQDFTVPGQVPEEEASHNGQRRGLPKAVCMNGTEAAQLSTKSRAEGRAPNPARKACSASSKIRRLSACKQQ

- Variants of: B1
- Experiment Notes: STK11 functional score (HeLa growth suppression), rescaled enrichment; synonymous median = 1, nonsense median = 0 (normalised score)
- Applied Conditions: with HeLa; variant type: missense
Consider the following variants and their measured STK11 functional score readings.
Quantity: STK11 functional score

mutation_string=G385W quantity="STK11 functional score" result=1.28
mutation_string=E342M quantity="STK11 functional score" result=1.46
mutation_string=F231L quantity="STK11 functional score" result=0.842
mutation_string=C418S quantity="STK11 functional score" result=1.51
